Assay: P. falciparum Dd2 growth inhibitors, dose response, SYBR Green, cherry-picked samples (AID 1159567)
Type: functional, cell-based
Activity calls are given as the source filed them.
PARAMETER MEASURED: AC50

- CCCNC(=O)N1[C@H](CO)[C@H](c2ccc(C3=CCCCC3)cc2)[C@H]1CNC(C)C: 5.26 µM (active)
- COc1cccc(C#Cc2cnc3c(c2)C(=O)N([C@H](C)CO)C[C@H](C)[C@@H](CN(C)C(=O)C2CCCCC2)O3)c1: 0.722 µM (active)
- O=C(Nc1ccc(C(F)(F)F)cc1)N1C[C@@H]2N[C@H](C1)[C@@H]2c1ccc(/C=C/c2ccccc2)cc1: 2.93 µM (active)
- C[C@@H]1CN([C@@H](C)CO)C(=O)c2cc(C#CCc3ccccc3)cnc2O[C@H]1CN(C)CC1CCCC1: 1.31 µM (active)
- O=C(C[C@H]1CC[C@@H]2[C@H](COC[C@H](O)CN2Cc2cc(F)ccc2F)O1)N[C@@H]1CCN(Cc2ccccc2)C1: 7.42 µM (active)

###

Molecular target: Heat shock factor protein 1 (Mus musculus, UniProt P38532)
Sequence (P38532 whole entry): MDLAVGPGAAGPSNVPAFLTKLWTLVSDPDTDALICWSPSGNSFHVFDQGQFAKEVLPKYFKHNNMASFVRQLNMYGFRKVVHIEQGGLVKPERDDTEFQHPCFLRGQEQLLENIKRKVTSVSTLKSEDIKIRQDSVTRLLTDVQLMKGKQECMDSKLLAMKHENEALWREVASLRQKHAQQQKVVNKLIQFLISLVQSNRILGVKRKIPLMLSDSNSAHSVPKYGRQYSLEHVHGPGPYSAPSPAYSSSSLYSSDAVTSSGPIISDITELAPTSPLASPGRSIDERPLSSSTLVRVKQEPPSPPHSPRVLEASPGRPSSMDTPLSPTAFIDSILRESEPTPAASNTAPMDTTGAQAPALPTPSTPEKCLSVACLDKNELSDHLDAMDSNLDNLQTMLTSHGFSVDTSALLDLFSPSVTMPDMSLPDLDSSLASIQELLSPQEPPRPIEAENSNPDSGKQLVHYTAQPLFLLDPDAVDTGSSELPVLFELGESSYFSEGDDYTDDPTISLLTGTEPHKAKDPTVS
Assay: decrease of HSF1-responsive luciferase luminescence – cell-based, NIH3T3, dose retest, confirmation (AID 2382);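 note: NIH3T3 fibroblasts with HSF1-driven luciferase reporter stressed by proteasome inhibitor MG132; luminescence from HSF1-driven luciferase expression after 8 hours of MG132 stress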
Type: functional
Activity calls are given as the source filed them.
EC50 by entry:
PARAMETER MEASURED: EC50

• CCOc1cccc(/C=N/NC(=S)Nc2ccccc2[N+](=O)[O-])c1O = 3.56 µM (active)
• COc1cc(OC)nc(Oc2ccccc2C(=O)Oc2ccc(Cl)cc2)n1 = > 195 µM (not active)
• COc1ccc(OC)c2c1C(=O)C(Cl)=C(Cl)C2=O = 4.56 µM (active)
• Cc1noc(/C=C/N(C)C)c1S(=O)(=O)N1CCN(c2ccc(F)cc2)CC1 = > 195 µM (not active)
• CCOCCCNC(=O)c1cc(C)nn1-c1ccccc1 = > 195 µM (not active)
• CCOc1ccc2ccccc2c1CNc1nnnn1CC = > 195 µM (not active)
• CC(C)(C)c1ccccc1NC(=O)NC1CCN(Cc2c(F)cccc2Cl)CC1 = > 195 µM (not active)
• C(=N\NC1=Nc2cccc3cccc1c23)/c1ccccn1 = 3.2 µM (active)
• CCc1ccc(/C=C2\Oc3cc(OC(=O)N4CCOCC4)ccc3C2=O)cc1 = > 195 µM (not active)
• CCOC(=O)c1nnn(CC(=O)NC(=O)Nc2ccc(F)cc2)c1C(=O)OCC = > 195 µM (not active)
• CCn1cc(CN2CCC(C(=O)Nc3cccc(-c4cccc(Cl)c4)c3)CC2)c(C)n1 = > 195 µM (not active)

###

Assay: Luminescence Cell-Based Dose Response HTS to Identify Activators of Luciferase Translation or Activity in H4 […] Cells. [Related pubchem assays: 1829 (Project Summary), 1814 (Primary HTS)]
Format: functional
The source made the active and inactive calls.
PARAMETER MEASURED: EC50

- CCCCNC(=O)C1CCN(Cc2ccc(OCc3ccccc3)cc2)CC1: 70.9 µM (active)
- c1ccc2c(c1)Nc1cc3ccccc3cc1S2: 6.01 µM (active)
- COc1cccc(NC(=O)C(=O)N2CCOCC2)c1: 78.3 µM (active)
- Oc1ccc(N=Nc2n[nH]c(-c3ccc(Cl)cc3)n2)cc1: 8.25 µM (active)
- Cc1cc(C(=O)CSc2nnc(-c3cccnc3)n2-c2ccccc2)c(C)n1CC1CCCO1 (stereo not drawn): 18.7 µM (active)
- CC(C)c1ccc(/C=N/NC(=O)C2CCCC2)cc1: 8.02 µM (active)
- O=c1sc(N2CCN(c3ccccc3F)CC2)nc2ccsc12: < 0.1 µM (inconclusive)
- O=C(NCc1cccnc1)/C(=C\c1ccc(-c2ccc(Cl)c(Cl)c2)o1)S(=O)(=O)c1ccccc1: > 120 µM (not active)

###

Let's go through some IC50 measurements on Estrogen receptor (Homo sapiens, UniProt P03372) together.
Sequence (P03372 whole entry): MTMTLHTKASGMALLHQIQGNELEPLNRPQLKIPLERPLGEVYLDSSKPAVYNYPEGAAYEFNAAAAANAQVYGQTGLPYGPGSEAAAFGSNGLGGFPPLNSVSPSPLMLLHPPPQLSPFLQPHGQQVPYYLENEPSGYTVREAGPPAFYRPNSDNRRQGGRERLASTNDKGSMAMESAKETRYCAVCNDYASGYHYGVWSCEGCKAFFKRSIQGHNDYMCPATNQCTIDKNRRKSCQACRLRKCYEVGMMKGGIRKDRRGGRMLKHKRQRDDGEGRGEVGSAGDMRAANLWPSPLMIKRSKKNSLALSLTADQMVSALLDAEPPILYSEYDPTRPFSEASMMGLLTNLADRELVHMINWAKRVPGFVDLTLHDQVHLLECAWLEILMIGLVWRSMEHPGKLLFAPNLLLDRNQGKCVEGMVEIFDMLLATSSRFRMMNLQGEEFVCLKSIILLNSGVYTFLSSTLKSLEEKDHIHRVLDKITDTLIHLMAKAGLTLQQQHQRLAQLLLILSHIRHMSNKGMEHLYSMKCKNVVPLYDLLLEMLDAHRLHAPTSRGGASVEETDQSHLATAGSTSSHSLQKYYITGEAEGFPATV
Active and inactive are the calls of the source.
PARAMETER MEASURED: IC50

- O=C(NCCO)c1ccc2nc(-c3ccco3)c(-c3ccco3)nc2c1: > 50 µM (not active)
- CSc1nc(NCCOCCO)c2sc3nc(-c4ccco4)c4c(c3c2n1)CCC4: > 50 µM (not active)
- CC(=O)Nc1ccc(/N=C/c2nc(-c3ccc(C)cc3)oc2O)cc1: 8.2 µM (active)
- O=C(NCc1ccco1)c1cc2ccccc2c(=O)o1: 30.2 µM (not active)

###

Target: UniProtKB Q9QUQ5
Sequence (Q9QUQ5 whole entry): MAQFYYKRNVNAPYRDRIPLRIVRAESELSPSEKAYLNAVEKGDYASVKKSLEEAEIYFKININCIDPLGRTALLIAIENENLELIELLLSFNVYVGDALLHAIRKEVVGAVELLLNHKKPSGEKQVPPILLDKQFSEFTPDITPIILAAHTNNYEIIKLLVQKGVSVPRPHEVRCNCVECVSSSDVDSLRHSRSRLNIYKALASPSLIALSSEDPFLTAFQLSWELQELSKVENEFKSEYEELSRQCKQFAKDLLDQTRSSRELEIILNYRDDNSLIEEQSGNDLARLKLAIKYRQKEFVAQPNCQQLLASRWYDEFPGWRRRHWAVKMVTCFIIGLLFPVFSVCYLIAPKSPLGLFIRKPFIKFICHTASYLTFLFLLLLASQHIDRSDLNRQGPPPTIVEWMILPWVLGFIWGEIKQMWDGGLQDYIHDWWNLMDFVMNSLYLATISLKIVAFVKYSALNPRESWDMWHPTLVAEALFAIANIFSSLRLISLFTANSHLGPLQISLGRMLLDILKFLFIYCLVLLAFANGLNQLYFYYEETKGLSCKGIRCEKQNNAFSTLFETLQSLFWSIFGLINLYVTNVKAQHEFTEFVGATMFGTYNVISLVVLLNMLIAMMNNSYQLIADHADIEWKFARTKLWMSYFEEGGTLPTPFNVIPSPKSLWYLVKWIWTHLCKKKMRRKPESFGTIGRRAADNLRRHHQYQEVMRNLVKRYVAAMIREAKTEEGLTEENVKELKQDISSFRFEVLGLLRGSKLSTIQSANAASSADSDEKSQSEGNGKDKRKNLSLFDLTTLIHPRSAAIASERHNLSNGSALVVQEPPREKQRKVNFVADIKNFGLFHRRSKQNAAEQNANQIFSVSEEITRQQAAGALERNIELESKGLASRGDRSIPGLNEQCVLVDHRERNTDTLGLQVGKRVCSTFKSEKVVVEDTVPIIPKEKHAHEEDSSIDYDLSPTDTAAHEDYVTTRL
Assay: calcium entry via TRPC4 opening agents – cell-based, HEK293 TRPC4/mu-opioid, Fluo-4 calcium, dose response (AID 434937)
Format: functional
Active and inactive are the calls of the source.
PARAMETER MEASURED: EC50

* Cc1noc(C)c1CCC(=O)NC1CCCN(Cc2ccc(CC(C)C)cc2)C1 (stereo not given) | 3.76 µM (active)
* CN(C)C(CNC(=O)CCS(=O)(=O)c1ccccc1)c1ccccc1 (stereo not given) | 0.376 µM (active)
* Cc1ccc(OCC(=O)N(C)CCc2ccccn2)cc1 | 6.68 µM (active)
* Cc1sc2ncnc(NC3CCN(Cc4ccccc4)CC3)c2c1C | 0.0467 µM (active)
* CC(C)(C)c1ccccc1NC(=O)NC1CCN(Cc2c(F)cccc2Cl)CC1 | 2.11 µM (active)

###

Biological target: Replicative DNA helicase DnaB (Mycobacterium tuberculosis, UniProt P9WMR3)
Sequence (P9WMR3 whole entry): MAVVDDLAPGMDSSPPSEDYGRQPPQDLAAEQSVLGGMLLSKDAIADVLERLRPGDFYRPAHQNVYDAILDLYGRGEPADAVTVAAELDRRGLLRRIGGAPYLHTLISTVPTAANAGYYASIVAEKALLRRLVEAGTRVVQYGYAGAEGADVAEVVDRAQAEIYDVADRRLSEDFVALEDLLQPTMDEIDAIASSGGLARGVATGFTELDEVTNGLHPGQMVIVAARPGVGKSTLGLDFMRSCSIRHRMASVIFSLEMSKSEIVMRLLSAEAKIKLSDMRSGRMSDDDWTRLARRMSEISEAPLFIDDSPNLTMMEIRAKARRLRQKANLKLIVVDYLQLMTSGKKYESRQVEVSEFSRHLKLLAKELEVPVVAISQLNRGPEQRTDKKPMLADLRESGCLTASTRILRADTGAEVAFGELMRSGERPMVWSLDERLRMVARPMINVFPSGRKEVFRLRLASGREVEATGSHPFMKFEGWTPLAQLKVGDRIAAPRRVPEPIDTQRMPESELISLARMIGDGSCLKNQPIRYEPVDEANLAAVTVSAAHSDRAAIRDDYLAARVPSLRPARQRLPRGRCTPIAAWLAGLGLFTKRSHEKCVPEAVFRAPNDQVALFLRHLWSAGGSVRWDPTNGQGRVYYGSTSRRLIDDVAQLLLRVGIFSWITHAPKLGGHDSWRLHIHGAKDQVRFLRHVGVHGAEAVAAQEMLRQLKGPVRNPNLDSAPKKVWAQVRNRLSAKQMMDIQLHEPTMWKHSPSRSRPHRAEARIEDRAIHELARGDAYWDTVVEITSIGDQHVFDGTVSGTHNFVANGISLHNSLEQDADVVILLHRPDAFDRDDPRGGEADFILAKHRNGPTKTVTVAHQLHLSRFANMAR
Test: DnaB intein splicing inhibitors, dose response, biochemical, cell-free fluorescence (AID 449749)
Assay type: functional
Active and inactive are the calls of the source.
Labels: true (1) for active, false (0) for inactive

- O=C(OCn1ncc(Br)c(Br)c1=O)c1ccccc1Cl: true (1)
- c1cncc(CNc2ncnc3sc4c(c23)CCCC4)c1: false (0)
- Cc1ccc(O)c(/N=C/C2=C(O)c3ccccc3C2=O)c1: true (1)
- N#CCCN(C(=O)CCl)c1cccc(Cl)c1: true (1)
- Cc1ccc(-n2nc(C)c3c2OC(N)=C(C#N)C3c2ccoc2)cc1 (configuration not stated): true (1)
- N#CC1=C(N)Oc2[nH]nc(-c3ccc(F)cc3)c2C1c1cccc(OC(=O)N2CCOCC2)c1 (configuration not stated): true (1)
- Cc1[nH]n(-c2ccccc2)c(=O)c1Sc1ccc(Cl)cc1: true (1)
